- Protocol description: Selectivity index, ratio of CC50 for cytotoxicity against human HEK293T cells overexpressing human ACE2 to EC50 for antiviral activity against SARS-CoV-2 VSV-G pseudotyped virus infected human HEK293T cells overexpressing ACE2
- Type: toxicity, cell-based
- Assay conditions: read-out: Ratio CC50/EC50

Structure as smiles: COc1cccc(OC)c1NC(=O)[C@]12CC[C@@H](C)[C@H](C)[C@H]1C1=CC[C@@H]3[C@@]4(C)CC[C@H](O[C@@H]5O[C@H](CO)[C@@H](O[C@@H]6O[C@@H](C)[C@H](O)[C@@H](O)[C@H]6O)[C@H](O)[C@H]5O[C@@H]5O[C@@H](C)[C@H](O)[C@@H](O)[C@H]5O)C(C)(C)[C@@H]4CC[C@@]3(C)[C@]1(C)CC2
selectivity ratio: > 10.2

====

- Protocol description: Selectivity index, ratio of CC50 for cytotoxicity against human HEK293T cells overexpressing human ACE2 to EC50 for antiviral activity against SARS-CoV-2 VSV-G pseudotyped virus infected human HEK293T cells overexpressing ACE2
- Format: toxicity, cell-based
- Assay conditions: read-out: Ratio CC50/EC50

Structure as smiles: COc1ccc(CNC(=O)[C@]23CC[C@@H](C)[C@H](C)[C@H]2C2=CC[C@@H]4[C@@]5(C)CC[C@H](O[C@@H]6O[C@H](CO)[C@@H](O[C@@H]7O[C@@H](C)[C@H](O)[C@@H](O)[C@H]7O)[C@H](O)[C@H]6O[C@@H]6O[C@@H](C)[C@H](O)[C@@H](O)[C@H]6O)C(C)(C)[C@@H]5CC[C@@]4(C)[C@]2(C)CC3)cc1
selectivity ratio: > 10

Structure as smiles: COc1ccccc1NC(=O)[C@]12CC[C@@H](C)[C@H](C)[C@H]1C1=CC[C@@H]3[C@@]4(C)CC[C@H](O[C@@H]5O[C@H](CO)[C@@H](O[C@@H]6O[C@@H](C)[C@H](O)[C@@H](O)[C@H]6O)[C@H](O)[C@H]5O[C@@H]5O[C@@H](C)[C@H](O)[C@@H](O)[C@H]5O)C(C)(C)[C@@H]4CC[C@@]3(C)[C@]1(C)CC2
selectivity ratio: 4.05

Structure as smiles: C[C@H]1[C@H](C)CC[C@]2(C(=O)NCc3ccccc3)CC[C@]3(C)C(=CC[C@@H]4[C@@]5(C)CC[C@H](O[C@@H]6O[C@H](CO)[C@@H](O[C@@H]7O[C@@H](C)[C@H](O)[C@@H](O)[C@H]7O)[C@H](O)[C@H]6O[C@@H]6O[C@@H](C)[C@H](O)[C@@H](O)[C@H]6O)C(C)(C)[C@@H]5CC[C@]43C)[C@H]12
selectivity ratio: > 10
